METHOD: CHI Log D procedure
Format: physicochemical
RECORDED_CONDITIONS: pH 7.4, CHI Log D
Tag: met if measured chromatographic logD is not below 2, not met if it is.

Exercise: Dear colleague, could you confirm whether CC(=O)N1CCC[C@]12CC=CCCCC1(CCCC=CCCCOC(=O)N3CC[C@@](C(=O)N[C@@H](Cc4ccsc4)C(=O)N[C@@H](Cc4csc5ccccc45)C(=O)N[C@@H](CCC(N)=O)C(N)=O)(C3)NC(=O)[C@H](CC(N)=O)NC(=O)[C@H](Cc3ccccc3)NC(=O)[C@H](CCCCNC(=O)CCc3cccc4ccccc34)NC(=O)[C@H](C)NC(=O)[C@H](CC(=O)O)NC(=O)[C@H](CC(=O)O)NC1=O)NC(=O)[C@H](CC(C)(C)C)NC(=O)[C@H](CC(=O)O)NC2=O (stereo partly drawn) [I-884] has chromatographic logD at or above 2?
Key: met

Exercise: Does chromatographic logD meet or surpass 2 for CC(=O)N1CCC[C@]12CC=CCCCC1(CCCC=CCCCCCC[C@@](C)(C(=O)N[C@@H](Cc3ccccc3)C(=O)N[C@@H](Cc3c[nH]c4ccccc34)C(=O)N[C@@H](CCC(N)=O)C(N)=O)NC(=O)[C@H](C(C)C)NC(=O)[C@H](Cc3ccccc3)NC(=O)[C@H](C)NC(=O)[C@H](C)NC(=O)[C@H](C(c3ccccc3)c3ccccc3)NC(=O)[C@H](CC(=O)O)NC1=O)NC(=O)[C@H](C)NC(=O)[C@H](CC(=O)O)NC2=O (stereo partly drawn) [I-303] ?
Key: met

Exercise: Please check the record CC(=O)N1CCC[C@]12CC=CCCCC1(CCCC=CCCCOC(=O)N3CC[C@@](C(=O)N[C@@H](Cc4ccsc4)C(=O)N[C@@H](Cc4csc5ccccc45)C(=O)N[C@@H](CO)C(N)=O)(C3)NC(=O)[C@H](CC(N)=O)NC(=O)[C@H](Cc3ccccc3)NC(=O)[C@H](C)NC(=O)[C@H](C)NC(=O)[C@H](CC(=O)O)NC(=O)[C@H](CC(=O)O)NC1=O)NC(=O)[C@H](CC(C)(C)C)NC(=O)[C@H](CC(=O)O)NC2=O (stereo partly drawn) [I-815] and state if its chromatographic logD is at or above 2.
Key: met

Exercise: Quick check: does CC(=O)N1CCC[C@]12CC=CCCCC1(CCCC=CCCCOC(=O)N3CC[C@@](C(=O)N[C@@H](Cc4ccccc4Cl)C(=O)N[C@@H](Cc4csc5ccccc45)C(=O)N[C@@H](CCC(N)=O)C(N)=O)(C3)NC(=O)[C@H](CO)NC(=O)[C@H](Cc3ccccc3)NC(=O)[C@H](C)NC(=O)[C@H](C)NC(=O)[C@H](CC(=O)O)NC(=O)[C@H](CC(=O)O)NC1=O)NC(=O)[C@H](CC(C)(C)C)NC(=O)[C@H](CC(=O)O)NC2=O (stereo partly drawn) [I-1017] have chromatographic logD greater than or equal to 2?
Key: met

Exercise: API: above_or_equal(metric=chromatographic logD, cutoff=2) for item CC(=O)N1CCC[C@]12CC=CCCCC1(CCCC=CCCCCCC[C@@](C)(C(=O)N[C@@H](Cc3ccccc3)C(=O)N[C@@H](Cc3c[nH]c4ccccc34)C(=O)N[C@@H](C)C(N)=O)NC(=O)[C@H](CCC(N)=O)NC(=O)[C@H](Cc3ccccc3)NC(=O)[C@H](C)NC(=O)[C@H](C)NC(=O)[C@H](CC(=O)O)NC(=O)[C@H](CC(=O)O)NC1=O)NC(=O)[C@H](C)NC(=O)[C@H](CC(=O)O)NC2=O (stereo partly drawn) [I-316]
Key: not met

Exercise: Reported chromatographic logD reaches at least 2 for CC(=O)N1CCC[C@]12CC=CCCCC1(CCCC=CCCCOC(=O)N3CC[C@@](C(=O)N[C@@H](Cc4ccsc4)C(=O)N[C@@H](Cc4csc5ccccc45)C(=O)N[C@@H](CCC(N)=O)C(N)=O)(C3)NC(=O)[C@H](CC(N)=O)NC(=O)[C@H](Cc3ccccc3)NC(=O)[C@H](CCCCNC(=O)c3ccc(CN4CCN(C)CC4)cc3)NC(=O)[C@H](C)NC(=O)[C@H](CC(=O)O)NC(=O)[C@H](CC(=O)O)NC1=O)NC(=O)[C@H](CC(C)(C)C)NC(=O)[C@H](CC(=O)O)NC2=O (stereo partly drawn) [I-889] ?
Key: not met

Exercise: Please tell me: is the compound CC(=O)N1CCC[C@]12CC=CCCCC1(CCCC=CCCCOC(=O)N3CC[C@@](C(=O)N[C@@H](Cc4ccccc4Cl)C(=O)N[C@@H](Cc4csc5ccccc45)C(=O)N[C@@H](CO)C(N)=O)(C3)NC(=O)[C@H](CC(N)=O)NC(=O)[C@H](Cc3ccccc3)NC(=O)[C@H](C)NC(=O)[C@H](C)NC(=O)[C@H](CC(=O)O)NC(=O)[C@H](CC(=O)O)NC1=O)NC(=O)[C@H](CC1CCCCC1)NC(=O)[C@H](CC(=O)O)NC2=O (stereo partly drawn) [I-1046] at or over 2 in terms of chromatographic logD?
Key: met

Exercise: Check if chromatographic logD >= 2 (inclusive). Item: CC(=O)N[C@@H](Cc1ccccc1)C(=O)N[C@@H](CC(=O)O)C(=O)N[C@@H](C)C(=O)N[C@]1(C)CCCCCCC=CCOC(=O)N2CC[C@@](C(=O)N[C@@H](Cc3ccccc3)C(=O)N[C@@H](Cc3c[nH]c4ccccc34)C(=O)N[C@@H](CCC(N)=O)C(N)=O)(C2)NC(=O)[C@H](C(C)C)NC(=O)[C@H](CCc2ccccc2)NC(=O)[C@H](C)NC(=O)[C@H](C)NC(=O)[C@H](CC(=O)O)NC(=O)[C@H](CC(=O)O)NC1=O (single isomer, unassigned) [I-117]
Key: not met

* * *

METHOD: CHI Log D procedure
Type: physicochemical
RECORDED_CONDITIONS: pH 7.4, CHI Log D
VALUE_TYPE: chromatographic logD
Lab note: jot the number down without any unit.

Exercise: Note chromatographic logD for the compound shown: `CC(=O)N[C@@H](Cc1ccccc1)C(=O)N[C@@H](CC(=O)O)C(=O)N[C@@H](C)C(=O)N[C@]1(C)CCCCCCC=CCOC(=O)N2CC[C@@](C(=O)N[C@@H](Cc3cccc(C(N)=O)c3)C(=O)N[C@@H](Cc3c[nH]c4ccccc34)C(=O)N[C@@H](CCC(N)=O)C(N)=O)(C2)NC(=O)[C@H](C(C)C)NC(=O)[C@H](Cc2ccccc2)NC(=O)[C@H](C)NC(=O)[C@H](C)NC(=O)[C@H](CC(=O)O)NC(=O)[C@H](CC(=O)O)NC1=O`
Key: 1

Exercise: Specify measured chromatographic logD for CC(=O)N1CCC[C@]12CC=CCCCC1(CCCC=CCCCOC(=O)N3CC[C@@](C(=O)N[C@@H](Cc4ccccc4Cl)C(=O)N[C@@H](Cc4csc5ccccc45)C(=O)N[C@@H](CO)C(N)=O)(C3)NC(=O)[C@H]([C@@H](C)O)NC(=O)[C@H](Cc3ccccc3)NC(=O)[C@H](C)NC(=O)[C@H](C)NC(=O)[C@H](CC(=O)O)NC(=O)[C@H](CC(=O)O)NC1=O)NC(=O)[C@H](CC(C)(C)C)NC(=O)[C@H](CC(=O)O)NC2=O (stereo partly shown) .
Key: 2.27

Exercise: Identify measured chromatographic logD corresponding to CC(=O)N1CCC[C@]12CC=CCCCC1(CCCC=CCCCCCC[C@@](C)(C(=O)N[C@@H](Cc3ccccc3Cl)C(=O)N[C@@H](Cc3csc4ccccc34)C(=O)N[C@@H](CCC(N)=O)C(N)=O)NC(=O)[C@H](CCO)NC(=O)[C@H](Cc3ccccc3)NC(=O)[C@H](C)NC(=O)[C@H](C)NC(=O)[C@H](CN(CC(=O)O)CC(F)(F)F)NC(=O)[C@H](CC(=O)O)NC1=O)NC(=O)[C@H](CC(C)(C)C)NC(=O)[C@H](CC(=O)O)NC2=O (stereo partly shown)
Key: 2.84

Exercise: Return value of chromatographic logD for input CC(=O)N1CCC[C@]12CC=CCCCC1(CCCC=CCCCCCC[C@@](C)(C(=O)N[C@@H](Cc3cccc(F)c3)C(=O)N[C@@H](Cc3csc4ccccc34)C(=O)N[C@@H](CCC(N)=O)C(N)=O)NC(=O)[C@H](CCC(N)=O)NC(=O)[C@H](Cc3cccc(C)c3)NC(=O)[C@H](C)NC(=O)[C@H](C)NC(=O)[C@H](CN(CC(=O)O)CC(F)(F)F)NC(=O)[C@H](CC(=O)O)NC1=O)NC(=O)[C@H](C)NC(=O)[C@H](CC(=O)O)NC2=O (stereo partly shown) , no commentary.
Key: 2.4

Exercise: Kindly indicate its recorded chromatographic logD. Item: CC(=O)N1CCC[C@]12CC=CCCCC1(CCCC=CCCCOC(=O)N3CC[C@@](C(=O)N[C@@H](Cc4ccccc4)C(=O)N[C@@H](Cc4csc5ccccc45)C(=O)N[C@@H](CCC(N)=O)C(N)=O)(C3)NC(=O)[C@H](CO)NC(=O)[C@H](Cc3cccc(C(F)(F)F)c3)NC(=O)[C@H](C)NC(=O)[C@H](C)NC(=O)[C@H](CC(=O)O)NC(=O)[C@H](CC(=O)O)NC1=O)NC(=O)[C@H](CC1CCCCC1)NC(=O)[C@H](CC(=O)O)NC2=O (stereo partly shown)
Key: 2.39

Exercise: Indicate its recorded chromatographic logD; the compound in question is CC(=O)N1CCC[C@]12CC=CCCCC1(CCCC=CCCCOC(=O)N3CC[C@@](C(=O)N[C@@H](Cc4ccccc4Cl)C(=O)N[C@@H](Cc4csc5ccccc45)C(=O)N[C@@H](C(N)=O)[C@H](C)O)(C3)NC(=O)[C@H](CC(N)=O)NC(=O)[C@H](Cc3ccccc3)NC(=O)[C@H](C)NC(=O)[C@H](C)NC(=O)[C@H](CC(=O)O)NC(=O)[C@H](CCC(=O)O)NC1=O)NC(=O)[C@H](CC(C)(C)C)NC(=O)[C@H](CC(=O)O)NC2=O (stereo partly shown)
Key: 2.76

Exercise: Look up and state reported chromatographic logD for CC(=O)N1CCC[C@]12CC=CCCCC1(CCCC=CCCCOC(=O)N3CC[C@@](C(=O)N[C@@H](Cc4cccs4)C(=O)N[C@@H](Cc4csc5ccccc45)C(=O)N[C@@H](Cc4c[nH]cn4)C(N)=O)(C3)NC(=O)[C@H](CC(N)=O)NC(=O)[C@H](Cc3ccccc3)NC(=O)[C@H](C)NC(=O)[C@H](C)NC(=O)[C@H](CC(=O)O)NC(=O)[C@H](CC(=O)O)NC1=O)NC(=O)[C@H](CC(C)(C)C)NC(=O)[C@H](CC(=O)O)NC2=O (stereo partly shown)
Key: 2.12

Exercise: Indicate its recorded chromatographic logD; the compound in question is CC(=O)N1CCC[C@]12CC=CCCCC1(CCCC=CCCCOC(=O)N3CC[C@@](C(=O)N[C@@H](Cc4ccccc4Cl)C(=O)N[C@@H](Cc4csc5ccccc45)C(=O)N[C@@H](CO)C(N)=O)(C3)NC(=O)[C@H](CO)NC(=O)[C@H](Cc3ccccc3)NC(=O)[C@H](C)NC(=O)[C@H](C)NC(=O)[C@H](CC(=O)O)NC(=O)[C@H](CC(=O)O)NC1=O)NC(=O)[C@H](CC1CCCCC1)NC(=O)[C@H](CC(=O)O)NC2=O (stereo partly shown)
Key: 2.45

Exercise: Query chromatographic logD for CC(=O)N1CCC[C@]12CC=CCCCC1(CCCC=CCCCCCC[C@@](C)(C(=O)N[C@@H](Cc3ccccc3)C(=O)N[C@@H](Cc3c[nH]c4ccccc34)C(=O)N[C@@H](CCC(N)=O)C(N)=O)NC(=O)[C@H](C(C)C)NC(=O)[C@H](Cc3ccccc3)NC(=O)[C@H](C)NC(=O)[C@H](C)NC(=O)[C@H](CCC(=O)O)NC(=O)[C@H](CC(=O)O)NC1=O)NC(=O)[C@H](C)NC(=O)[C@H](Cc1ccc(O)cc1)NC2=O (stereo partly shown)
Key: 2.62

Exercise: For CC(=O)N1CCC[C@]12CC=CCCCC1(CCCC=CCCCOC(=O)N3CC[C@@](C(=O)N[C@@H](Cc4ccsc4)C(=O)N[C@@H](Cc4csc5ccccc45)C(N)=O)(C3)NC(=O)[C@H](CC(N)=O)NC(=O)[C@H](Cc3ccccc3)NC(=O)[C@H](C)NC(=O)[C@H](C)NC(=O)[C@H](CC(=O)O)NC(=O)[C@H](CC(=O)O)NC1=O)NC(=O)[C@H](CC(C)(C)C)NC(=O)[C@H](CC(=O)O)NC2=O (stereo partly shown) , write its chromatographic logD.
Key: 2.28
